Target: human 5-HT6 receptor (Homo sapiens, UniProt P50406)
Construct: host or cells: CHO-K1 cells, stably transfected; membranes prepared in house
Sequence (P50406 whole entry): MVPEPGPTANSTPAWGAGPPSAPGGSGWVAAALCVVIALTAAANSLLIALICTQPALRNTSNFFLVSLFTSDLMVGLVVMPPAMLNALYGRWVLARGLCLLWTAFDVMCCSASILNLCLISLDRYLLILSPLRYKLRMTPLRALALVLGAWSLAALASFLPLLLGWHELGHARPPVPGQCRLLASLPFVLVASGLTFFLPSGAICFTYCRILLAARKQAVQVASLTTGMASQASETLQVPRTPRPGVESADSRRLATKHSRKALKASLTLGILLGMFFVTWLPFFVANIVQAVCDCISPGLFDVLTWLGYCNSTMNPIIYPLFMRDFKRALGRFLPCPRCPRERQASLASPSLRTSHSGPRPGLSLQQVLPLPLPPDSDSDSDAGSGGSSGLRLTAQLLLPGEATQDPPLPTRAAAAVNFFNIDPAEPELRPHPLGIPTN
Assay: Human 5-HT6 Receptor Binding Assay ([3H]LSD, scintillation beads)
Settings: membranes of CHO-K1 cells with recombinant human 5-HT6 receptor, 4 nM [3H]LSD, Cheng-Prusoff; read-out: Human 5-HT6 Ki app
PROPERTY: Ki

COMPOUND: CC(C)Oc1cc(F)cc(S(=O)(=O)c2ccc3c(c2)OCC2NCCC32)c1 (single isomer, unassigned) [Example 43]
RECORDED MEASUREMENT: < 500 nM
//
COMPOUND: O=S(=O)(c1cncc(Br)c1)c1ccc2c(c1)OCC1C2CCN1C1CCC1 (single isomer, unassigned) [Example 73]
RECORDED MEASUREMENT: 500 to 1000 nM
//
COMPOUND: CC(C)CCCN1CCC2c3ccc(S(=O)(=O)c4ccccc4)cc3OCC21 (single isomer, unassigned) [Example 94]
RECORDED MEASUREMENT: < 500 nM
//
COMPOUND: CC(C)N1CCC2c3ccc(S(=O)(=O)c4ccccc4)cc3OCC21 (single isomer, unassigned) [Example 58]
RECORDED MEASUREMENT: > 1000 nM
//
COMPOUND: O=S(=O)(c1ccccc1)c1ccc2c(c1)OCC1C2CCN1CC(F)F (single isomer, unassigned) [Example 77]
RECORDED MEASUREMENT: > 1000 nM
//
COMPOUND: O=S(=O)(c1cncc(C(F)(F)F)c1)c1ccc2c(c1)OCC1C2CCN1C1CCC1 (single isomer, unassigned) [Example 86]
RECORDED MEASUREMENT: > 1000 nM
//
COMPOUND: O=S(=O)(c1ccc2c(c1)OCC1NCCC21)c1cc(F)cc(F)c1F (single isomer, unassigned) [Example 50]
RECORDED MEASUREMENT: < 500 nM
